Entries and their pIC50 values follow.
Target: Dimer of Gag-Pol polyprotein [489-587] (Human immunodeficiency virus 1)
Construct: 489-587
Assay: Protease Inhibition Assay
Procedure: For determination of IC50 values, HIV-1 protease was added to assay buffer containing inhibitor and the substrate (H-His-Lys-Ala-Arg-Val-Leu- (p-NO2) Phe-Glu-Ala-norleucine-Ser-NH2). The Leu- (p-NO2) Phe bond of the substrate was cleaved by the enzyme, and the substrate and products were separated by reversed-phase HPLC. Absorbance was measured at 220 nm, peak areas were determined, and percentage conversion to product was calculated.
# log scale: pIC50 equals minus log10 of the concentration in mol/L

In: Would you kindly share the measured pIC50 for Cc1cc(SC2C(=O)CC(CCc3ccccc3)(c3ccccc3)OC2=O)c(C(C)(C)C)cc1CO (centres undefined) [PD 178390 Analog 38] ?
Out: 8.19

In: Quick one: pIC50 of Cc1cc(SC2C(=O)CC(CCc3ccc(O)cc3)(C3CCCC3)OC2=O)c(C(C)(C)C)cc1OCCO (centres undefined) ?
Out: 8.55

In: Tell me the measured pIC50 of Cc1cc(SC2C(=O)CC(CCc3ccc(O)cc3)(C3CC3)OC2=O)c(C(C)(C)C)cc1OCCO (centres undefined) , please.
Out: 8.42

In: Item under review: CCCCC1(CCc2ccc(O)cc2)CC(=O)C(Sc2cc(C)c(OCCO)cc2C(C)(C)C)C(=O)O1 (centres undefined) . Reported pIC50?
Out: 8.19
